conditions: human gut metagenome, 24 h, 2 µM; note: call rule not given here
test readout: Bacterial Biotransformation

Illustrative cases are given below, each with its answer.
| compound | Bacterial Biotransformation |
| --- | --- |
| CN1CCN(C(=O)O[C@H]2c3nccnc3C(=O)N2c2ccc(Cl)cn2)CC1 | Compound NOT metabolized |
| CCN(CC)CCNC(C(=O)OCCC(C)C)c1ccccc1.Cl.Cl (centres undefined) | Compound NOT metabolized |
| CN1CC(=O)N2[C@H](c3ccc4c(c3)OCO4)c3[nH]c4ccccc4c3C[C@@H]2C1=O | Compound NOT metabolized |
| CN1CCOC(c2ccccc2)c2ccccc2C1 (centres undefined) | Compound NOT metabolized |
| CN1C(=O)CCS(=O)(=O)C1c1ccc(Cl)cc1 (centres undefined) | Compound NOT metabolized |
| CCN(CC)CCOCCOC(=O)C1(c2ccccc2)CCCC1.O=C(O)CC(O)(CC(=O)O)C(=O)O [CARBETAPENTANE CITRATE] | Compound NOT metabolized |

Task item: Entry CCN(CC)C(C)CN1c2ccccc2Sc2ccccc21 (centres undefined) : reported Bacterial Biotransformation = ?
Reply: Compound NOT metabolized

Task item: Any idea what its Bacterial Biotransformation is? The compound is COc1cc2nc(N3CCN(C(=O)c4ccco4)CC3)nc(N)c2cc1OC
Reply: Compound NOT metabolized

Task item: For the compound CC(C)NCC(O)COc1ccc(CCOCC2CC2)cc1 (centres undefined) , what Bacterial Biotransformation is on record?
Reply: Compound NOT metabolized

Task item: Looking for the measured Bacterial Biotransformation of CCc1nn(CCCN2CCN(c3cccc(Cl)c3)CC2)c(=O)n1CCOc1ccccc1 , can you help?
Reply: Compound metabolized

----------
settings: human gut metagenome, 24 h, 2 µM
Where a SMILES comes first, the peptide text is derived from it. [ ]: non-standard residue; d: D form. pGlu = O=C1CC[C@@H](C(=O)O)N1; Thz = O=C(O)[C@@H]1CSCN1

| molecule | Bacterial Biotransformation |
| --- | --- |
| NS(=O)(=O)c1cc2c(cc1Cl)N=C(CSCc1ccccc1)NS2(=O)=O [BENZTHIAZIDE] | Compound NOT metabolized |
| OC(CCN1CCCCC1)(c1ccccc1)C1CCCCC1 (centres undefined) [TRIHEXYPHENIDYL] | Compound metabolized |
| c1ccc([C@H]2CN3CCSC3=N2)cc1 [LEVAMISOLE] | Compound NOT metabolized |
| O=C1CC[C@@H](C(=O)N2CSC[C@H]2C(=O)O)N1 [PIDOTIMOD] ([pGlu]-[Thz]-OH) | Compound metabolized |

----------
experiment: The drug is tested on Z-017 corresponding to mouse gut metagenome with ENA study accession number: PRJEB37062 and ENA sample accession number: ERS12561816 for biotransformation under anaerobic condition. The drug concentrations were measured over 9 timepoints collected between 0 and 24 hours of incubation by liquid-chromatography-coupled mass spectrometry (LC–MS); settings: 2 µM
test readout: Bacterial Biotransformation

Known results for molecules:
| molecule | Bacterial Biotransformation |
| --- | --- |
| CC(C)(C(=O)O)c1ccc(C(O)CCCN2CCC(C(O)(c3ccccc3)c3ccccc3)CC2)cc1 (stereo not given) [FEXOFENADINE] | Compound NOT metabolized |
| CCCCC(=O)N(Cc1ccc(-c2ccccc2-c2nnn[nH]2)cc1)[C@H](C(=O)O)C(C)C | Compound NOT metabolized |
| CC(=O)CC(c1ccccc1)c1c(O)c2ccccc2oc1=O (stereo not given) [WARFARIN] | Compound NOT metabolized |
| CC(C)OC(=O)C(C)(C)Oc1ccc(C(=O)c2ccc(Cl)cc2)cc1 [FENOFIBRATE] | Compound metabolized |
| CNS(=O)(=O)Cc1ccc2[nH]cc(CCN(C)C)c2c1.O=C(O)CCC(=O)O [SUMATRIPTAN SUCCINATE] | Compound NOT metabolized |
| CCCc1nn(C)c2c(=O)[nH]c(-c3cc(S(=O)(=O)N4CCN(C)CC4)ccc3OCC)nc12.O=C(O)CC(O)(CC(=O)O)C(=O)O [SILDENAFIL CITRATE] | Compound NOT metabolized |

Task item: Requested field: Bacterial Biotransformation. Item: COCCc1ccc(OCC(O)CNC(C)C)cc1.COCCc1ccc(OCC(O)CNC(C)C)cc1.O=C(O)C(O)C(O)C(=O)O (stereo not given) [METOPROLOL TARTRATE]
Reply: Compound NOT metabolized

Task item: Please report the recorded Bacterial Biotransformation for Clc1ccc(Cn2c(CN3CCCC3)nc3ccccc32)cc1 [CLEMIZOLE] .
Reply: Compound NOT metabolized

Task item: Param item = Cc1cn([C@H]2C[C@H](N=[N+]=[N-])[C@@H](CO)O2)c(=O)[nH]c1=O [ZIDOVUDINE] ; retrieve measured Bacterial Biotransformation.
Reply: Compound metabolized

Task item: Bacterial Biotransformation for CN1CCN(C2=Nc3cc(Cl)ccc3Nc3ccccc32)CC1 [CLOZAPINE] ?
Reply: Compound NOT metabolized

----------
conditions: human gut metagenome, 24 h, 2 µM
Where a SMILES comes first, the peptide text is derived from it. [ ]: non-standard residue; d: D form. pGlu = O=C1CC[C@@H](C(=O)O)N1; Thz = O=C(O)[C@@H]1CSCN1
test readout: Bacterial Biotransformation

Some solved cases for reference:
| compound | Bacterial Biotransformation |
| --- | --- |
| NC(=O)N1c2ccccc2CC(=O)c2ccccc21 [OXCARBAZEPINE] | Compound metabolized |
| CN1CCN(C(=O)O[C@H]2c3nccnc3C(=O)N2c2ccc(Cl)cn2)CC1 | Compound NOT metabolized |
| COc1ccc(CCN(C)CCCC(C#N)(c2ccc(OC)c(OC)c2)C(C)C)cc1OC (stereo not given) | Compound metabolized |
| CN/C(=N/CCSCc1nc[nH]c1C)NC#N | Compound NOT metabolized |
| CC(=O)O[C@]1(C(C)=O)CC[C@H]2[C@@H]3C=C(Cl)C4=CC(=O)[C@@H]5C[C@@H]5[C@]4(C)[C@H]3CC[C@@]21C [CYPROTERONE ACETATE] | Compound metabolized |
| CCC1(c2ccc(N)cc2)CCC(=O)NC1=O (stereo not given) [AMINOGLUTETHIMIDE] | Compound NOT metabolized |
| CN1C[C@H](C(=O)N[C@]2(C)O[C@@]3(O)[C@@H]4CCCN4C(=O)[C@H](Cc4ccccc4)N3C2=O)C=C2c3cccc4[nH]cc(c34)C[C@H]21.CN1C[C@H](C(=O)N[C@]2(C)O[C@@]3(O)[C@@H]4CCCN4C(=O)[C@H](Cc4ccccc4)N3C2=O)C=C2c3cccc4[nH]cc(c34)C[C@H]21.O=C(O)C(O)C(O)C(=O)O [ERGOTAMINE TARTRATE] | Compound metabolized |
| Cc1ccnc2c1NC(=O)c1cccnc1N2C1CC1 | Compound NOT metabolized |
| CC(C)(C#N)c1cc(Cn2cncn2)cc(C(C)(C)C#N)c1 | Compound metabolized |
| CC(C)(Oc1ccc(CCNC(=O)c2ccc(Cl)cc2)cc1)C(=O)O [BEZAFIBRATE] | Compound metabolized |

Moving on to another compound below.
Task item: What measured Bacterial Biotransformation goes with O=C1CC[C@@H](C(=O)N2CSC[C@H]2C(=O)O)N1 [PIDOTIMOD] ([pGlu]-[Thz]-OH) ?
Reply: Compound NOT metabolized

----------
assay: The drug is tested on WLS-038 corresponding to human gut metagenome with ENA study accession number: PRJEB37062 and ENA sample accession number: ERS12561745 for biotransformation under anaerobic condition. The drug concentrations were measured over 9 timepoints collected between 0 and 24 hours of incubation by liquid-chromatography-coupled mass spectrometry (LC–MS); conditions: 2 µM
test readout: Bacterial Biotransformation

| molecule | Bacterial Biotransformation |
| --- | --- |
| C[C@@H]1C[C@H]2[C@@H]3CCC4=CC(=O)C=C[C@]4(C)[C@@]3(F)[C@@H](O)C[C@]2(C)[C@@]1(O)C(=O)CO [DEXAMETHASONE] | Compound NOT metabolized |
| CNS(=O)(=O)Cc1ccc2[nH]cc(CCN(C)C)c2c1.O=C(O)CCC(=O)O [SUMATRIPTAN SUCCINATE] | Compound NOT metabolized |
| CCN(CC)C(C)CN1c2ccccc2Sc2ccccc21 (stereo not given) [ETHOPROPAZINE] | Compound NOT metabolized |
| OC(Cn1cncn1)(Cn1cncn1)c1ccc(F)cc1F [FLUCONAZOLE] | Compound NOT metabolized |
| CNC(=C[N+](=O)[O-])NCCSCc1ccc(CN(C)C)o1 [RANITIDINE] | Compound NOT metabolized |
| CCCc1nc2c(C)cc(-c3nc4ccccc4n3C)cc2n1Cc1ccc(-c2ccccc2C(=O)O)cc1 | Compound metabolized |

Task item: So what does the record say about Bacterial Biotransformation for Clc1ccc(Cn2c(CN3CCCC3)nc3ccccc32)cc1 [CLEMIZOLE] ?
Reply: Compound metabolized

Task item: Fill in: Bacterial Biotransformation of COCCc1ccc(OCC(O)CNC(C)C)cc1.COCCc1ccc(OCC(O)CNC(C)C)cc1.O=C(O)C(O)C(O)C(=O)O (stereo not given) [METOPROLOL TARTRATE] is ___
Reply: Compound NOT metabolized

Task item: Fill in: Bacterial Biotransformation of C[C@@H](CO)NC(=O)[C@@H]1C=C2c3cccc4[nH]cc(c34)C[C@H]2N(C)C1.O=C(O)/C=C\C(=O)O [ERGONOVINE MALEATE] is ___
Reply: Compound metabolized

Task item: I'd like to know its Bacterial Biotransformation. The molecule in question is COC(=O)C1=C(C)NC(C)=C(C(=O)OC(C)C)C1c1cccc2nonc12 (stereo not given) [ISRADIPINE]
Reply: Compound NOT metabolized

// data source = ChEMBL document CHEMBL5724914
